- system: Cathepsin K (Homo sapiens, UniProt P43235)
- Sequence (P43235 115-329, species assumed): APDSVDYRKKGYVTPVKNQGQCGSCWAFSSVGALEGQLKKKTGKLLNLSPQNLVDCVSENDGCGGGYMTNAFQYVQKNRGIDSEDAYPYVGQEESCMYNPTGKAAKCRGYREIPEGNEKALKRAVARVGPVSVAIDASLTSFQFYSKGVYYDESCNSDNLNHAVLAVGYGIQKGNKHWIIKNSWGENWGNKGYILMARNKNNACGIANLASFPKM
- assay-protocol: in vitro fluorescence-based protease inhibition assay, cathepsin K
- Assay type: biochemical
- conditions: Table 4, calpain inhibitors
pKi: −log10 of the molar value. Starred links: 1 amine or outer side, 2 acyl side, 3 side chain; linkers in the order of their positions; H or OH if unused. Positions of bridges follow the written chain, without caps; N, C: chain ends. Residues, ends and D or L forms follow the SMILES beside them. mXylylene = c1cc(C[*:1])cc(C[*:2])c1
measured-endpoint: pKi

q: Identify measured pKi corresponding to CC[C@H](C)[C@H](NC(=O)[C@@H](NC(=O)[C@@H](NC(=O)[C@@H](N)CCC(=O)O)C(C)C)[C@@H](C)O)C(=O)N1CCC[C@H]1C(=O)N1CCC[C@H]1C(=O)N[C@@H](CCCCN)C(=O)N[C@@H](Cc1ccc(O)cc1)C(=O)N[C@H]1CSCc2cccc(c2)CSC[C@@H](C(=O)O)NC(=O)[C@H](CC(C)C)NC(=O)[C@H](CC(C)C)NC(=O)[C@H](CCC(=O)O)NC1=O [compound 69] (H-EVTIPPKYCELLC-OH; linker 9-13 via mXylylene; N-terminus and C-terminus assumed)
a: < 4.00
